From: paper PMC9837035

Target: MLL1 (Homo sapiens, UniProt Q03164)
Construct: purchased Reaction Biology
Assay protocol: Radioisotope-based methyltransferase assay (selectivity)
Format: biochemical
Condition summary: MLL1, 1 μM SAM
Property label: pIC50
# log scale: pIC50 equals minus log10 of the concentration in mol/L

# input Look up pIC50 with MLL1 (Homo sapiens, UniProt Q03164) for this compound: Nc1ncnc2c1ncn2[C@@H]1O[C@H](CSCC[C@H](N)C(=O)O)[C@@H](O)[C@H]1O [SAH, S-(5'-Adenosyl)-L-homocysteine, reference compound]
# output 5.89

----------
Target: PRMT3 (Homo sapiens)
Construct: purchased Reaction Biology
Sequence (O60678 whole entry): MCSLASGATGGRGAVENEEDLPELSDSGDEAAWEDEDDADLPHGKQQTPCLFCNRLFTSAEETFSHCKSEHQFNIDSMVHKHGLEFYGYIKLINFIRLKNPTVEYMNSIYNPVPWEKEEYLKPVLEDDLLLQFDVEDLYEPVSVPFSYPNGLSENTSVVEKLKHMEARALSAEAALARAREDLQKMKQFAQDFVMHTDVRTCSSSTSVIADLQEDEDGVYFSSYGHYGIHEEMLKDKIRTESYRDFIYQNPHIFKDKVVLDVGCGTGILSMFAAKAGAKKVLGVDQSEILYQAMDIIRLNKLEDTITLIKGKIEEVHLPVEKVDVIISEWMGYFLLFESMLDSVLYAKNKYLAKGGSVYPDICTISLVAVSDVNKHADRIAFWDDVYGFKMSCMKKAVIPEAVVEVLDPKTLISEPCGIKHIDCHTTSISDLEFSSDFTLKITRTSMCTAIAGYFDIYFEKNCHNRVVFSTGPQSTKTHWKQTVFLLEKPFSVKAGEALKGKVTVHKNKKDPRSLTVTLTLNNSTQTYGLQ
Assay protocol: Radioisotope-based methyltransferase assay (selectivity)
Type: biochemical
Condition summary: PRMT3; RK-701 in duplicate
Property label: IC50 (nM)
Kindly answer with a numeric value in nM, unit omitted.

# input Consider the compound Nc1ncnc2c1ncn2[C@@H]1O[C@H](CSCC[C@H](N)C(=O)O)[C@@H](O)[C@H]1O [SAH, S-(5'-Adenosyl)-L-homocysteine, reference compound] and give its measured IC50.
# output 2440
